System: NL-RLuc virus
PROCEDURE_SUMMARY: Inhibition of HIV replication (NL-RLuc luciferase reporter virus in MT-2 cells)
Type: cell-based
DETAILS: Human immunodeficiency virus 1, MT2, 120 h, read-out: EC50 μM
PARAMETER: EC50 (µM)
Express it in µM; write the number only.

Under NL-RLuc virus: EC50 value of Cc1nc(COc2cccc(Cl)c2)c(-c2ccc(OCCc3ccc(F)cc3)cc2)c(N2CCC(C)(C)CC2)c1[C@H](OC(C)(C)C)C(=O)O [Example 15] ? 0.051

Under NL-RLuc virus: EC50 value of CNc1nc(C)c([C@H](OC(C)(C)C)C(=O)O)c(N2CCC(C)(C)CC2)c1-c1ccc(OCCc2ccc(F)cc2)cc1 [Example 49] ? 0.001

Under NL-RLuc virus: EC50 value of Cc1nc(CC2CCC(C)(C)CC2)c(-c2ccc(OCCc3ccc(F)cc3)cc2)c(N2CCC(C)(C)CC2)c1[C@H](OC(C)(C)C)C(=O)O [Example 173] ? 0.035

Under NL-RLuc virus: EC50 value of Cc1ncn(Cc2nc(C)c([C@H](OC(C)(C)C)C(=O)O)c(N3CCC(C)(C)CC3)c2-c2ccc(OCCc3ccc(F)cc3)cc2)n1 [Example 31] ? 0.009

Under NL-RLuc virus: EC50 value of Cc1cccc(Cl)c1CN1CCc2cc(-c3c(CN4CCC(C)(C)CC4)nc(C)c([C@H](OC(C)(C)C)C(=O)O)c3N3CCC(C)(C)CC3)ccc2C1 [Example 179] ? 0.005

Under NL-RLuc virus: EC50 value of Cc1nc(CN(C)CC2CCCCC2)c(-c2ccc(OCCc3ccc(F)cc3)cc2)c(N2CCC(C)(C)CC2)c1[C@H](OC(C)(C)C)C(=O)O [Example 100] ? 0.003

Under NL-RLuc virus: EC50 value of Cc1nc(COc2ccc(Cl)cc2)c(-c2ccc(OCCc3ccc(F)cc3)cc2)c(N2CCC(C)(C)CC2)c1[C@H](OC(C)(C)C)C(=O)O [Example 6] ? 0.02

Under NL-RLuc virus: EC50 value of CCOCCOCc1cc(N2CCC(C)(C)CC2)c([C@H](OC(C)(C)C)C(=O)O)c(C)n1 [Example 35] ? 0.316

Under NL-RLuc virus: EC50 value of Cc1ncn(Cc2nc(C)c([C@H](OC(C)(C)C)C(=O)O)c(N3CCC(C)(C)CC3)c2-c2ccc3c(c2)CCN(Cc2ccc(F)cc2C)C3)n1 [Example 144] ? 0.025

Under NL-RLuc virus: EC50 value of Cc1nc(CO)c([C@H](OC(C)(C)C)C(=O)O)c(N2CCC(C)(C)CC2)c1-c1ccc(OCCc2ccc(F)cc2)cc1 [Example 1] ? 0.003

Under NL-RLuc virus: EC50 value of COc1ccccc1NCc1nc(C)c([C@H](OC(C)(C)C)C(=O)O)c(N2CCC(C)(C)CC2)c1-c1ccc(OCCc2ccc(F)cc2)cc1 [Example 91] ? 0.018

Under NL-RLuc virus: EC50 value of Cc1cc(F)ccc1CN1CCc2cc(-c3c(COC4CCOCC4)nc(C)c([C@H](OC(C)(C)C)C(=O)O)c3N3CCC(C)(C)CC3)ccc2C1 [Example 155] ? 0.001

Under NL-RLuc virus: EC50 value of COC1CCN(Cc2nc(C)c([C@H](OC(C)(C)C)C(=O)O)c(N3CCC(C)(C)CC3)c2-c2ccc(OCCc3ccc(F)cc3)cc2)CC1 [Example 85] ? 0.001
